protocol-summary: soluble on expression in E. coli; label from the status in PepcDB or PDB records
property-label: soluble on expression in E. coli

ordered-residues: MGSDKIHHHHHHMAQIIAVHSFRGGTGKSNLIANMAATMALQGQRVGIIDTDIQSPGIHVIFGINENKMERTLNDYLWGYCNIKDAAYDVTEALAIEQGNTSTVKGSLHLVPCSIKASEIARVLREGYDVVRLNDGFQEFIRSLKLDYLLIDTHPGLNEETLLSIGISNVLVILLRPDHQDFQGTAVTVDVARKLKVPKMLLVINKVLPSLNFLDLQQQVEKIYNAPVVGILPLSEDMVQLASKGLFSLRYPQHPISQTIKGITNQIASLVVSH
soluble on expression in E. coli: not soluble
//
ordered-residues: MENQVEVMTYAHLKEIMQALEANEAITEDTKVFIDTGWDSVQEVAPDAVSIEKVAKFTVADVLTNESFAGYSLEEKAEKMNAEGDLETAIIIRNLY
soluble on expression in E. coli: not soluble
//
ordered-residues: MKRLIICNGNKLTVCTQAISSGGIVEKYTPIFSLTKESDNELTLELSGVARGYYIIPSELTSSQARAAHLITLLTRAEESQTTDMHKILNSFVSGKITSGSMFNFENDGSFKREPEEAYNLINKI
soluble on expression in E. coli: not soluble
//
ordered-residues: MDLIPARIGLIYNPLGGWFRKHTARMQSLLATLPEIRQIQATDQIEFERAVTVVVEAKIGWLIVVGGDGTLQGVMSCLFECLPPDRWPEITIVPAGTTNMTALDLGMNGQAEQILSRIRQHLQRPGDMKQVRRP
soluble on expression in E. coli: not soluble
//
ordered-residues: MTTAIGKKTTKLEPFKMERGVKYRDAAKTSVIQVRNIDPDQELLKKPEWMKIKLPTNSAKIDSIKYGMRRHGLHSVCEEASCPNLHECFNHGTATFMIMGAICTRRCPFCDVAHGKPLPLDPYEPRKVAETVQDMKLKYVVITSVDRDDLADRGAAHFAATVREIKALNPECKVEILVPDFRGRVEQAVAILKQNPPDVFNHNLENVPRLYREIRPGADYKWSLELLKIFKQEFPNIPTKSGLMVGLGETNEEILAVMQDLRDHGVTMLTVGQYLQPSRHHLRVERYVPPAEFEMFRSEAEKMGFEHAACGPFVRSSYHADLQAKGELVK
soluble on expression in E. coli: not soluble

Q: Using known records, supply soluble on expression in E. coli for `MSITHLMRQQVEELFKRFLEKTGLSEEATVYAVFIPKEEEVDEESVDVFEQRVNPKDAESVENFVSRLTKVALENDVKELKLYALVLDRDGETLIIAREENPEADEVIKELIERMKEEV`
Result: not soluble

Q: Report soluble on expression in E. coli, nothing else, for this sequence: `QTINKIDLQALEESQIDWAKYQPHQAVVLKARKQLRDHQQTALNATAAGLNDAERGKLIMACGTGKTFTSLKIAERLAGKGKRVLFLVPSLSLLSQTLTEWTQESETPLHSFAVCSDSDVGKKRKADEDTVQVFTHELRYPATTKADRLAAEMLKRHDAEHMSVVFSTYHSIDVISRAQHEYDLAAFDLVICDEAHRTTGATFDDDDESTFVRIHDVDYIRAIKRLYMTA`
Result: not soluble

====

protocol-summary: soluble on expression in E. coli; label from the status in PepcDB or PDB records
property-label: soluble on expression in E. coli

ordered-residues: KVWAFDIQPQALNNTRCRLQEAGYSNVRLILDGHENLKQYIPKPLDAAIFNFGWLPGGDKSLTTRTETSIAALSATLSLLKENGMLIAVLYPGHENGKQEAEAIEQWAKNLPQEQFAVLRYGFTNRKNSPPYLLVFEKLRQK
property-label: soluble on expression in E. coli
assay-value: not soluble
--
ordered-residues: MSPLASRALSFLGALSLLTFAATPVLAESTPTAAPPQFAVESPKAASSLLLSVAHAGKRLVAVGDRGHILLSDDDGKTWTQAKVPTRQLLTSVFFVNERKGWAVGHDAQILVSDDAGSTWARQFEDLGREAPLLDIWFADEQHGLAVGAYGALLETRDGGQHWEDVSERLDNEDQFHLNAIAAVKDNGLLVVGEAGSLFRSKDWGATWEKLEGPYEGSLFGAIGTADAGGVLVYGLRGHLFRSADFGDSWEEIPLKAASGDLEFGLSDGALLADGRIVVVGHGGSVLESTDGGRSFSVFNRPDRLSLAGVSATGDGHLILVGQGGVHLAAANGAALEQQQLEHHHHHH
property-label: soluble on expression in E. coli
assay-value: not soluble
--
ordered-residues: MSTPSHLNAQPLVWGHGPRTFEVFLEPTCPYSVRAFNKLDDLLDEVGADNVTIKIRLQSQPWHLFSGVIVRCILAASTLPHGREQAHKVMQAVADHREEFEFTDHCSGPNMNATPQQIIERIERYSHVLLGAAFARPELQDVIKWHSKYARQNGIHVSPTFMVNGLVQPDLGSGDDVSVWAARIMA
property-label: soluble on expression in E. coli
assay-value: not soluble
